Source of measurements: patent US7005430B2

Known melting point of a selection of compounds

Examples with answers:
CCCN1C(=O)N2C[C@@H](Cc3ccccc3)N=C2c2c1nc(SC)n2COC: 110 to 112 °C
CCCN1C(=O)N2C[C@@H](Cc3ccccc3)N=C2c2[nH]c(C3CCN(C(=O)OC(C)(C)C)CC3)nc21.Cl: 204 to 205 °C
CCCN1C(=O)N2CC(Cc3ccccc3)CN=C2c2[nH]c(COCC)nc21.O=C(O)/C=C/C(=O)O (stereo not shown): 152 to 157 °C

The record that follows has no melting point shown yet.
Consider CCCN1C(=O)N2CC(Cc3ccncc3)N=C2c2[nH]c(C(C)(C)C)nc21 (stereo not shown) . Its measured melting point is 293 to 295 °C

----------
Structures can show the parent of a compound that is named as a salt.
Known melting point of a selection of molecules

Consider "Cl.O=C1N2C[C@@H](Cc3ccc(F)cc3)N=C2c2[nH]c(C3CCCC3)nc2N1CCO" . Its measured melting point is 165 to 167 °C

Consider "Cl.O=C(O)CN1C(=O)N2C[C@@H](Cc3ccccc3)N=C2c2[nH]c(C3CCCC3)nc21" . Its measured melting point is 280 °C (dec.)

Consider "CSC1=Nc2nc(C(C)(C)C)[nH]c2C2=N[C@H](Cc3ccccc3)CN12" . Its measured melting point is 171 to 174 °C

Consider CCCN1C(=O)N2C[C@@H](Cc3ccccc3)N=C2c2[nH]c(C3(O)CCCC3)nc21 (as salt: salt) . Its measured melting point is 187 to 188 °C

Consider "CCCN1C(=O)N2C[C@@H](Cc3ccccc3)N=C2c2c1nc(Br)n2Cc1ccccc1" . Its measured melting point is 200 to 206 °C

Consider "CCCN1C(=O)N2C[C@@H](Cc3ccccc3)N=C2c2[nH]c(CCC(=O)O)nc21" . Its measured melting point is 274 to 276 °C

Consider O=C1N2CC(Cc3ccncc3)N=C2c2[nH]c(C3CCCC3)nc2N1CC1CC1 (centres unmarked) (as salt: hydrochloride) [Compound 14, dihydrochloride] . Its measured melting point is 240 to 241 °C

Consider "CCCN1C(=O)N2C[C@@H](Cc3ccccc3)N=C2c2c1nc(C=O)n2Cc1ccccc1" . Its measured melting point is 184 to 185 °C

Consider CCCc1nc2c([nH]1)C1=NC(Cc3ccncc3)CN1C(=O)N2CCC (centres unmarked) . Its measured melting point is 270 to 274 °C

Consider "CCOC1=Nc2nc(C(C)(C)C)[nH]c2C2=N[C@H](Cc3ccccc3)CN12" . Its measured melting point is 220 to 222 °C

Consider "CCCN1C(=O)N2C[C@@H](Cc3ccccc3)N=C2c2c1nc(CCl)n2Cc1ccccc1" . Its measured melting point is 112 to 113 °C
